Assay: Cmax in NCR nude mouse at 10 mg/kg, po bid after 24 hrs
Assay type: ADME, organism-based
Set-up: dose 10 mg/kg, route oral
Conditions: in vivo
measurement name: Cmax

Exercise: Tell us which Cmax value is on record for `CCCn1cc(S(=O)(=O)c2ccc(NC(=O)[C@H]3C[C@@H]3c3cccnc3)cc2)cn1`
Solution: 34.6 µM

* * *

Each item that follows carries a reported CLhep predicted at 1 µM.
Test: Clearance in human liver microsomes at 1 uM up to 60 mins by LC-MS/MS analysis
Type: ADME

Known results for compounds:
Exercise: Tell us which CLhep predicted at 1 µM value is on record for O=C(Nc1ccc(S(=O)(=O)c2cccc(OC(F)(F)F)c2)cc1)[C@@H]1C[C@H]1c1cccnc1 (racemic)
Solution: 10 mL/min/kg

Exercise: Tell us which CLhep predicted at 1 µM value is on record for Cc1nn(C(C)C)cc1S(=O)(=O)c1ccc(NC(=O)[C@@H]2C[C@H]2c2cccnc2)cc1 (racemic)
Solution: 16 mL/min/kg

Exercise: Tell us which CLhep predicted at 1 µM value is on record for O=C(/C=C/c1cccnc1)NCCCCC1CCN(C(=O)c2ccccc2)CC1 [DAPORINAD]
Solution: 15 mL/min/kg

# context switch: different compound, same CLhep predicted at 1 µM
Exercise: Tell us which CLhep predicted at 1 µM value is on record for CS(=O)(=O)c1cccc(S(=O)(=O)c2ccc(NC(=O)[C@@H]3C[C@H]3c3cccnc3)cc2)c1 (racemic)
Solution: 9 mL/min/kg
